I'd appreciate it if you could supply Ki values for the items below.
molecular target: nuclease (Homo sapiens)
Sequence (P03950 25-147): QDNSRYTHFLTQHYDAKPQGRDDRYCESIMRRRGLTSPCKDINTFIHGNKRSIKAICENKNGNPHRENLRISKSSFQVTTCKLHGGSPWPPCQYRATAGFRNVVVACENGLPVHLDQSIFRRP
Field format: number, assumed µM, no unit text.

Request: Report Ki for Cc1cc(-c2ccc(/N=N/c3c(N)ccc4cc(S(=O)(=O)O)ccc34)c(C)c2)ccc1/N=N/c1c(N)ccc2cc(S(=O)(=O)O)ccc12 [Benzopurpurin B] please.
Response: 5

Request: Field request: Ki | item: CC(=O)Nc1ccc(N=Nc2c(S(=O)(=O)O)cc3cc(S(=O)(=O)O)cc(NC(C)=O)c3c2O)cc1 [acid violet7, acid violet 7]
Response: 71

Request: Value lookup for Ki; key = O=C(Nc1ccc(/N=N/c2ccc3cc(S(=O)(=O)O)cc(S(=O)(=O)O)c3c2)cc1)c1ccc(/N=N/c2c(O)ccc3cc(S(=O)(=O)O)cc(S(=O)(=O)O)c23)cc1 [compound 65841]
Response: 5

Values compiled from patent US7264932B2.
